Assay: Fluorescence titration of labeled ParM with ADP
Assay type: binding
Conditions: Table 2; fluorescence titration, 20° C.
pKd: −log10 of the molar value.

# Molecule, pKd
rows = [
    ("T174A T175A: MDCC-ParM (His6/I27C/T174A/T175A/C287A) (conjugate, UniProt P11904 1-320, looked up, variant I27C T174A T175A C287A, MDCC label; His6 tag) Plasmid segregation protein …: MLVFIDDGSTNIKLQWQESDGTIKQHCSPNSFKREWAVSFGDKKVFNYTLNGEQYSFDPISPDAVVTTNIAWQYSDVNVVAVHHALLTSGLPVSEVDIVCTLPLTEYYDRNNQPNTENIERKKANFRKKITLNGGDTFTIKDVKVMPESIPAGYEVLQELDELDSLLIIDLGGAALDISQVMGKLSGISKIYGDSSLGVSLVTSAVKDALSLARTKGSSYLADDIIIHRKDNNYLKQRINDENKISIVTEAMNEALRKLEQRVLNTLNEFSGYTHVMVIGGGAELIADAVKKHTQIRDERFFKTNNSQYDLVNGMYLIGN", 6.48),
]
